Just for reference, PubChem BioAssay (NCI) is where these values come from.

System: CAKI-1 renal
MEASUREMENT_DESCRIPTION: NCI tumour cell line growth inhibition, 48 h
RECORDED_ENDPOINT: TGI

compound=CC(C)c1ccc(C(O)(C(=O)O)c2ccc(C(C)C)cc2)cc1 experimental_result="> 100 µM"
compound="CCCCCCCC(=O)OC(COC(=O)Cc1ccccc1)COC(=O)C(C)(C)C (centres undefined)" experimental_result="> 100 µM"
compound=CC(=O)OC(C)(C)C[N+](=O)[O-] experimental_result="> 100 µM"
compound=COc1ccc2nc3c([N+](=O)[O-])ccc4c3c(c2c1)N=CN4CCN(C)C experimental_result="5.71 µM"
